Assay: Nuclear factor erythroid 2-related factor 2/antioxidant responsive element (Nrf2/ARE) small molecule agonists: qHTS cell viability counter screen in human keratinocytes (AID 1919968); also: nearly all actives have a fitted effect of over 55% in size
Conditions: KeratinoSens HaCaT ARE cells viability, CellTiter-Fluor, 24 h; series mostly up to 92.4 µM
Inconclusive results are not listed. Active and inactive are the calls of the source. Calls follow the shape of the dose curve; as a rule, active = well fitted cell-killing curve with a large enough effect in the repeat runs; inconclusive = weak or mixed curves, or effect the other way; inactive = flat fitted curve, though single readings scatter.
Tick one outcome: active, inactive

Clc1ccc(-c2ccc(Cl)c(Cl)c2Cl)c(Cl)c1Cl = active

Request: For this compound, state the assay outcome: C#CC(C)(C)O
Result: inactive

Request: For this compound, state the assay outcome: CCN[C@@H](C)Cc1cccc(C(F)(F)F)c1
Result: inactive

Request: For this compound, state the assay outcome: CC(CC(C#N)(c1ccccc1)c1ccccc1)N(C)C (centres undefined)
Result: inactive

Request: For this compound, state the assay outcome: CCCCCCC[CH2][Sn]([Cl])([Cl])[CH2]CCCCCCC
Result: active

Request: For this compound, state the assay outcome: c1ccc2nc(N3CCNCC3)ccc2c1
Result: inactive

Values were extracted from PubChem BioAssay (Tox21).
